Cited source for all entries: ChEMBL document CHEMBL3352194

Target: CYP2C19 (Homo sapiens, UniProt P33261)
Sequence (P33261 whole entry): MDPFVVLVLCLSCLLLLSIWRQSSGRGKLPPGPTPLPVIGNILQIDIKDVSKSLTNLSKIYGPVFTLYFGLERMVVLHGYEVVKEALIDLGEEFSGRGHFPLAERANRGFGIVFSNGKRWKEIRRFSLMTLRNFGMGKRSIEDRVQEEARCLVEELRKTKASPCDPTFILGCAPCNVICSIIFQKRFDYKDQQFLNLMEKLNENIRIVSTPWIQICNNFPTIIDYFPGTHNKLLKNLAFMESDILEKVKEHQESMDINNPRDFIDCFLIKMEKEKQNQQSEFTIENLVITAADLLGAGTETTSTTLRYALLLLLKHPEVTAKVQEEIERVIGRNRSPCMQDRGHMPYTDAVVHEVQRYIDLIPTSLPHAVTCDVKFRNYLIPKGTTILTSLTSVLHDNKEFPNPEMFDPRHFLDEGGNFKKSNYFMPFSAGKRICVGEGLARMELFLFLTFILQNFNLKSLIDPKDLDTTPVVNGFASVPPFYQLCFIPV
Assay: Inhibition of CYP2C19 (unknown origin) using omeprazole substrate at 10 uM
Type: ADME
Settings: probe omeprazole
quantity-kind: inhibition at 10 µM (%)

Completed entries (count: 2):
molecule	inhibition at 10 µM (%)
Cc1ccc([C@H]2CCNC[C@@H]2COc2cc(F)c(S(=O)(=O)Nc3ncns3)cc2F)cc1 (relative stereo)	59
CN1CC[C@@H](c2ccc(Cl)cc2)[C@H](COc2cc(F)c(S(=O)(=O)Nc3ncns3)cc2F)C1 (relative stereo)	86

1. O=S(=O)(Nc1ncns1)c1cc(F)c(OC[C@@H]2CNC[C@H]2c2ccc(Cl)cc2)cc1F (relative stereo)
2. O=S(=O)(Nc1ncns1)c1cc(F)c(OC[C@H]2CNCC[C@@H]2c2ccc(Cl)c(F)c2)cc1F (relative stereo)
[ask] Given 1 and 2 , report the one with the higher recorded inhibition at 10 µM. // respond with label for picked entry
[reply] 1
(1: 90%, 2: 60%)
